Read-out: Tumor necrosis factor (Homo sapiens) (UniProt P01375)
Sequence (P01375 whole entry, looked up): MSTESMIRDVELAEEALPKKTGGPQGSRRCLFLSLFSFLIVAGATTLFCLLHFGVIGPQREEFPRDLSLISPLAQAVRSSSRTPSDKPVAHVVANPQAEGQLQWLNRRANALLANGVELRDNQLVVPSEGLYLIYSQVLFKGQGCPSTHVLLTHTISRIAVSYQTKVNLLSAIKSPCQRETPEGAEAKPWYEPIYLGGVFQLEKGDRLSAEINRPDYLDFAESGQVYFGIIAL
Assay: BSK_LPS_TNFa: BioMAP Diversity Plus: LPS Assay for Tumour Necrosis Factor alpha (TNFa) Biomarker Activity (AID 2283085)
Conditions: primary human HUVEC with PBMC; actives raise or lower the signal
Experimental: BSK_LPS is a cell-based, multiplexed-readout assay that uses umbilical vein endothelium and peripheral blood mononuclear cells, a human vascular primary cell co-culture, with measurements taken at 24 hours after chemical dosing in a 96-well plate.BSK_LPS_TNFa is an assay component measured in the BSK_LPS assay. It measures TNF-a antibody related to regulation of gene expression using ELISA technology.Data from the assay component BSK_LPS_TNFa was analyzed into 1 assay endpoint. […]
The source made the active and inactive calls. How the source made its calls: active means hit-call score of the fitted dose curve at least 0.9, where 1 is the maximum; inactive means score below 0.9.
Mark one answer only. Choices: Y for active, N for inactive

Examples from the recorded data:
CCCN(CC)CC1COC2(CCC(C(C)(C)C)CC2)O1 (configuration not stated) : N
CCCC(=NOCC)C1=C(O)CC(CC(C)SCC)CC1=O (configuration not stated) : N
O=C1C2CC=CCC2C(=O)N1SC(Cl)(Cl)Cl (configuration not stated) : Y
CCOP(=O)(OCC)Oc1nc(Cl)c(Cl)cc1Cl : Y
COP(=O)(OC)O/C(C)=C/C(=O)N(C)C : N

[ask] Please share the test call associated with Clc1nc(Cl)nc(Nc2ccccc2Cl)n1 .
[reply] N

[ask] Please share the test call associated with OC(c1ccc(Cl)cc1)(c1ccc(Cl)cc1)C(Cl)(Cl)Cl .
[reply] Y
